Test: interference with biotin-avidin bead interaction – biochemical, flow cytometry, bead-based, counter-screen for RGS protein interaction modulators (AID 1783);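 also: median green fluorescence of gated singlet beads compared with DMSO control wells; 0% = DMSO wells and 100% = complete loss of bead fluorescence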
Details: streptavidin beads, fluorescein-biotin binding; at 10 µM, stronger effect = higher value
The other results are listed elsewhere or left out.
Measured parameter: inhibition (%)

{"Compound": "CCOC(=O)NNc1cc(C(F)(F)F)ccn1", "Measured parameter": "inhibition", "Measured result": -0.7}
{"Compound": "CCCn1c(C)cc(C(=O)COC(=O)c2c(C)nn(-c3ccccc3)c2C)c1C", "Measured parameter": "inhibition", "Measured result": 1.1}
{"Compound": "COc1cc(C(=O)Nc2cc(C(F)(F)F)ccc2N2CCOCC2)ccc1O", "Measured parameter": "inhibition", "Measured result": 0.3}
{"Compound": "COc1ccccc1NC(=O)CCCc1c[nH]c2ccccc12", "Measured parameter": "inhibition", "Measured result": 2.9}
{"Compound": "Cc1c(CN2CCCC(C(=O)c3cccc(Cl)c3)C2)c(=O)n(-c2ccccc2)n1C (stereo not given)", "Measured parameter": "inhibition", "Measured result": -1.5}

---

System: anti-desmoglein-3 scFv antibody binding to human DSG3
Test: blockers of pathogenic pemphigus antibody–desmoglein-3 binding – biochemical, validation compound set, bead-based, flow cytometry, pilot screen (AID 588368);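 also: signal is the median channel fluorescence of bead-bound GFP antibody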
Settings: Protein G beads, DSG3-Fc, scFv-GFP binding, at 10 µM, stronger effect = lower value

{"Molecule": "CC1=C(/C=C/C(C)=C/C=C/C(C)=C/C(=O)O)C(C)(C)CCC1", "Units text": "%", "binding (% of control)": 101}
{"Molecule": "O=C(NC1CCCCC1)N1CCc2[nH]c3ccccc3c2C1", "Units text": "%", "binding (% of control)": 219}
{"Molecule": "C#C[C@]1(O)CC[C@H]2[C@@H]3CCc4cc(OC5CCCC5)ccc4[C@H]3CC[C@@]21C", "Units text": "%", "binding (% of control)": 105}
{"Molecule": "CCOc1ccc2oc(-c3ccccc3)c(C(=O)O)c2c1", "Units text": "%", "binding (% of control)": 101}
{"Molecule": "CN1C(C(=O)Nc2ccccn2)=C(O)c2ccccc2S1(=O)=O", "Units text": "%", "binding (% of control)": 100}
{"Molecule": "NC(N)=NC(=O)Cc1c(Cl)cccc1Cl", "Units text": "%", "binding (% of control)": 98.2}
{"Molecule": "Cc1ccc(C2CC(=O)C(C=NCCN3CCN(CC(=O)Nc4cc(C)cc(C)c4)CC3)=C(O)C2)cc1 (stereo unspecified)", "Units text": "%", "binding (% of control)": 103}
{"Molecule": "COc1ccccc1NC(=O)C12CCC(C)(C(=O)C1)C2(C)C (stereo unspecified)", "Units text": "%", "binding (% of control)": 102}
{"Molecule": "CC(OC(=O)c1cc(=O)[nH]c2ccccc12)C(=O)c1ccccc1 (stereo unspecified)", "Units text": "%", "binding (% of control)": 106}
{"Molecule": "O=C(O)Cc1ccc(-c2ccccc2)cc1", "Units text": "%", "binding (% of control)": 99.5}
{"Molecule": "COc1cc(NS(=O)(=O)c2ccc(N)cc2)nc(OC)n1", "Units text": "%", "binding (% of control)": 96.4}
{"Molecule": "CC1(C)CC(=O)c2c(nc3ccccc3c2N)C1", "Units text": "%", "binding (% of control)": 102}
{"Molecule": "CC(=O)NC(Cc1ccccc1)C(=O)OCC(=O)c1ccccc1 (stereo unspecified)", "Units text": "%", "binding (% of control)": 105}
{"Molecule": "CCc1cccc2c3c([nH]c12)C(CC)(CC(=O)O)OCC3 (stereo unspecified)", "Units text": "%", "binding (% of control)": 86.9}
{"Molecule": "CC(=O)[C@@H]1[C@@H](C(=O)c2ccc(C)cc2)[C@]2(C(=O)Nc3ccccc32)[C@H]2C=Cc3cc(F)ccc3N12", "Units text": "%", "binding (% of control)": 98.9}
{"Molecule": "O=C1C(Cc2ccccc2)NC(=S)N1c1ccccc1 (stereo unspecified)", "Units text": "%", "binding (% of control)": 98.7}
